- measured_on: Monoglyceride lipase (Mus musculus)
- assay_info: […] of MAGL in mouse B16-F10 cells using 7-HRA as substrate preincubated for 60 mins followed by substrate addition measured every 2.5 mins for 2 hrs by fluorescence assay
- Format: cell-based
reported_property: EC50
Just the number plus its unit, please.

# input Recorded EC50 for O=C(Nc1cccc(-c2ccccc2)c1)Nc1cccc(-c2ccccc2)c1 , please?
# output 5.76 µM

* * *

- assay_info: Induction of apoptosis in HEK293T cells assessed as live cells at 10 uM after 48 hrs by Annexin V-FITC/propidium iodide staining based flow cytometry (reference value: 82.43%)
- Assay type: cell-based, HEK-293T
- measurement_setup: human, read-out: Activity
reported_property: viability at 48 h, 10 µM

# input Recorded viability at 48 h, 10 µM for O=C(Nc1cccc(-c2ccc(C(F)(F)F)cc2)c1)OCc1ccco1 , please?
# output 81.4%

* * *

- measured_on: Monoglyceride lipase (Mus musculus, UniProt O35678)
- Sequence (O35678 whole entry): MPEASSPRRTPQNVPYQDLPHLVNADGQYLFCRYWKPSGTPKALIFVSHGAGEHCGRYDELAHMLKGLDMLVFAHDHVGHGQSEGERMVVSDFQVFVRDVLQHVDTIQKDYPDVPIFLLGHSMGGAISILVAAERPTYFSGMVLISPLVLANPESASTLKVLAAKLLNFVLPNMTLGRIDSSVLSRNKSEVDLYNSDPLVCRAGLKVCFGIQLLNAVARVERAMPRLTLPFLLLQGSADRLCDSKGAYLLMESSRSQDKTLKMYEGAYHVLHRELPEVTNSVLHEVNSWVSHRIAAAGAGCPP
- assay_info: Inhibition of MAGL in mouse B16-F10 cells using 7-HRA as substrate preincubated for 60 mins followed by substrate addition measured every 2.5 mins for 2 hrs by fluorescence assay
- Type: cell-based
- measurement_setup: read-out: IC50
reported_property: IC50 (µM)
Answer with a number only, understood to be in µM.

# annotated cases, reported IC50 shown
{"columns": ["smiles_record", "measured_on", "IC50 (µM)"],
 "data": [
  ["O=C(Nc1cccc(-c2ccccc2)c1)OCc1ccccc1", "Monoglyceride lipase (Mus musculus, UniProt O35678)", 16.5],
  ["O=C(Nc1cccc(-c2ccc(C(F)(F)F)cc2)c1)OCc1ccccc1", "Monoglyceride lipase (Mus musculus, UniProt O35678)", 9.41],
  ["O=C(Nc1cccc(-c2ccc(C(F)(F)F)cc2)c1)OCc1ccco1", "Monoglyceride lipase (Mus musculus, UniProt O35678)", 13.2],
  ["O=C(Nc1cccc(-c2ccccc2)c1)OCCc1ccccc1", "Monoglyceride lipase (Mus musculus, UniProt O35678)", 17.1],
  ["O=C(Nc1cccc(-c2ccc(C(F)(F)F)cc2)c1)OCC1CCCCC1", "Monoglyceride lipase (Mus musculus, UniProt O35678)", 17.4]
]}

# input Recorded IC50 for O=C(Nc1cccc(-c2ccc(F)cc2)c1)OCc1ccccc1 , please?
# output 15.6

# input Try the compound O=C(Nc1cccc(-c2ccccc2)c1)OC1CCCCC1
# output 19.8

# input Try the compound O=C(Nc1cccc(-c2ccc(F)cc2)c1)OCC1CCCCC1
# output 26.7

Source of measurements: ChEMBL document CHEMBL4219238
